Where do these numbers come from? They come from the supplement of paper PMC9732359.

measurement.notes: protein stability index of a GFP-peptide fusion (yeast GPS) (PSI 1-4); higher = more stable; sorted into four equal gates, so the index is relative within each strain
condition.description: doa10∆
measurement.name: protein stability index

[
  {
    "primary.sequence": "QWRYLYDTQLKVSPEEL [ARP7]",
    "protein stability index": 1.98
  },
  {
    "primary.sequence": "IKILGSEGYQKTFSRLD [RPN4]",
    "protein stability index": 1.28
  },
  {
    "primary.sequence": "YEKAQKDLENAQVEMKS [SMC1]",
    "protein stability index": 3.11
  },
  {
    "primary.sequence": "NPYNIVPQGKIVALTNA [SMC3]",
    "protein stability index": 2.77
  },
  {
    "primary.sequence": "TAAQVANVELTPSNIRS [RPC34]",
    "protein stability index": 2.79
  }
]

Incoming: Determine its reported protein stability index: MAGVKAYELRTKSKEQL [RPL35A]
Outgoing: 3

* * *

measurement.notes: protein stability index of a GFP-peptide fusion (yeast GPS) (PSI 1-4); higher = more stable; sorted into four equal gates, so the index is relative within each strain
condition.description: doa10∆
measurement.name: protein stability index
Please give the numeric answer without any surrounding text.

[
  {
    "primary.sequence": "NERRKDLAERASELDES [SMC3]",
    "measured.number": 2.13
  }
]

Incoming: Determine its reported protein stability index: RQSSDESDNYRLLPNGS [YML031W/NDC1]
Outgoing: 3.03

Incoming: Determine its reported protein stability index: IQEFLVVIEKRRKKILN [GRR1]
Outgoing: 2.92

Incoming: Determine its reported protein stability index: TTARNDLGVVFARAANG [CSL4]
Outgoing: 1.87

Incoming: Determine its reported protein stability index: KKLVWPLHLIFAQPVAD [SSN2]
Outgoing: 1.88

Incoming: Determine its reported protein stability index: KVPDSTYDMVGGLTKQI [RPT6]
Outgoing: 2.27

Incoming: Determine its reported protein stability index: IITNINAIFLSSEQDYS [YCG1]
Outgoing: 2.54

Incoming: Determine its reported protein stability index: LGLKLACLGNDGILRLY [YGL100W/SEH1]
Outgoing: 1.78

Incoming: Determine its reported protein stability index: FEKVGSHLYKARLDGHD [RPN14]
Outgoing: 2.92

Incoming: Determine its reported protein stability index: NGILPDDELMNWRRLSG [SSN2]
Outgoing: 2.97

Incoming: Determine its reported protein stability index: EDFLDKSYYLNTVMLQG [AAR2]
Outgoing: 2.02

Incoming: Determine its reported protein stability index: DDDDNNESSSNTTVISD [DIS3]
Outgoing: 3.01

Incoming: Determine its reported protein stability index: TTGISSTGAADGGYNAQ [SMC2]
Outgoing: 3.32

Incoming: Determine its reported protein stability index: HKCDELITLFNKGELET [RPO31]
Outgoing: 2.72

* * *

measurement.notes: protein stability index of a GFP-peptide fusion (yeast GPS) (PSI 1-4); higher = more stable; sorted into four equal gates, so the index is relative within each strain
condition.description: doa10∆
measurement.name: protein stability index
Please give the numeric answer without any surrounding text.

Worked cases, answers included:
[
  {
    "primary.sequence": "NIYDQLRNKLIESNKLA [RRP6]",
    "protein stability index": 2.34
  },
  {
    "primary.sequence": "LNDHIDDFEVNVASLVR [GRR1]",
    "protein stability index": 3.29
  },
  {
    "primary.sequence": "PYDKKKRVVVPQALRVL [RPL16A]",
    "protein stability index": 2.32
  },
  {
    "primary.sequence": "KAELIKPIQNGEIIDIS [ARP9]",
    "protein stability index": 3.31
  },
  {
    "primary.sequence": "IYNGKAFNQVEIRPEML [RPS15]",
    "protein stability index": 2.9
  },
  {
    "primary.sequence": "VRNSFPLDEIPVDVDFN [REC8]",
    "protein stability index": 2.71
  }
]

Incoming: Determine its reported protein stability index: ESSNEAKKTIQNPLNKS [SIR4]
Outgoing: 3.12

Incoming: Determine its reported protein stability index: AKRNLDANPSSQIIARN [SMC2]
Outgoing: 2.49

* * *

measurement.notes: protein stability index of a GFP-peptide fusion (yeast GPS) (PSI 1-4); higher = more stable; sorted into four equal gates, so the index is relative within each strain
condition.description: ubr1∆
Listing of recorded protein stability index by entry.
Please give the numeric answer without any surrounding text.

[
  {
    "primary.sequence": "EGEAKQKRNAHGYFLQD [ITC1]",
    "protein stability index": 3.32
  }
]

Incoming: Determine its reported protein stability index: QFKSKEVEKAHPIRLYT [PRP8]
Outgoing: 2.86

Incoming: Determine its reported protein stability index: SIVEECDARFDEKTIEE [RPC17]
Outgoing: 2.68

Incoming: Determine its reported protein stability index: QPQHPHYVSTSKISQMA [YLR018C/POM34]
Outgoing: 2.19

* * *

measurement.notes: protein stability index of a GFP-peptide fusion (yeast GPS) (PSI 1-4); higher = more stable; sorted into four equal gates, so the index is relative within each strain
condition.description: doa10∆
Param threshold (3) applies to protein stability index; output fulfilled when value >= threshold, not fulfilled when value < threshold.

Solved entries:
[
  {
    "primary.sequence": "LKKRYDLSYNFNVHEVP [YMR129W/POM152]",
    "group": "not fulfilled"
  },
  {
    "primary.sequence": "QVENMKWDFAKDIKGYG [PRE4]",
    "group": "not fulfilled"
  },
  {
    "primary.sequence": "KSKTSTGKERSKKRKLN [SNM1]",
    "group": "fulfilled"
  }
]

API: the following record is the query input.
Incoming: Decide: is the reported value of protein stability index for KSYASLLAQLNGTVNNN [RPT3] equal to or greater than 3?
Outgoing: not fulfilled

* * *

Listing of recorded protein stability index by entry.
measurement.notes: protein stability index of a GFP-peptide fusion (yeast GPS) (PSI 1-4); higher = more stable; sorted into four equal gates, so the index is relative within each strain
condition.description: ubr1∆
Please give the numeric answer without any surrounding text.

Worked cases, answers included:
[
  {
    "primary.sequence": "WYLILSIISSKTSCVVE [RGR1]",
    "protein stability index": 1.18
  },
  {
    "primary.sequence": "QAQAQAQAAQAAQAQAQ [GAL11]",
    "protein stability index": 3.04
  },
  {
    "primary.sequence": "VLKADRSWNEPSKSQTN [YML103C/NUP188]",
    "protein stability index": 3.27
  },
  {
    "primary.sequence": "SATPNAAAFSQQQNASS [GAL11]",
    "protein stability index": 3.09
  },
  {
    "primary.sequence": "RAKKTRALRRALTKFEA [RPL35A]",
    "protein stability index": 3.11
  }
]

Incoming: Determine its reported protein stability index: FFKPLDYITEAVFKIVL [SNU114]
Outgoing: 1.88

Incoming: Determine its reported protein stability index: LPPNWKYESATASALVN [RPS13]
Outgoing: 2.12

* * *

measurement.notes: protein stability index of a GFP-peptide fusion (yeast GPS) (PSI 1-4); higher = more stable; sorted into four equal gates, so the index is relative within each strain
condition.description: ubr1∆
Listing of recorded protein stability index by entry.
Please give the numeric answer without any surrounding text.

[
  {
    "primary.sequence": "NENNNNSSEKNNNNNNN [MED2]",
    "protein stability index": 2.95
  },
  {
    "primary.sequence": "VGDIVDIKANGSIQKGM [RPL21A]",
    "protein stability index": 2.19
  },
  {
    "primary.sequence": "TLDKKDSIPLRITNSFY [RPN9]",
    "protein stability index": 2.92
  },
  {
    "primary.sequence": "AKNETNSESDSKSDSDS [ITC1]",
    "protein stability index": 2.88
  },
  {
    "primary.sequence": "LIVDTHVQFRLGNVDAF [PRP8]",
    "protein stability index": 1.72
  },
  {
    "primary.sequence": "NQNSSTGAGAFGTGQST [YJL041W/NSP1]",
    "protein stability index": 2.6
  }
]

Please look at the following sequence next.
Incoming: Determine its reported protein stability index: TTESNSRLKALNLQFKA [YLR335W/NUP2]
Outgoing: 2.98

* * *

Listing of recorded protein stability index by entry.
measurement.notes: protein stability index of a GFP-peptide fusion (yeast GPS) (PSI 1-4); higher = more stable; sorted into four equal gates, so the index is relative within each strain
condition.description: doa10∆
Please give the numeric answer without any surrounding text.

Worked cases, answers included:
[
  {
    "primary.sequence": "SDVSDFEGWGHEYIRHL [RPN1]",
    "protein stability index": 3.07
  },
  {
    "primary.sequence": "TQARVITGNKIMRILKS [RPS13]",
    "protein stability index": 1.41
  },
  {
    "primary.sequence": "KFGYILCVLDYDNIDIQ [RPB7]",
    "protein stability index": 2.02
  }
]

Incoming: Determine its reported protein stability index: VNGSITDQLIQNIETRQ [NUT1]
Outgoing: 3.22

Incoming: Determine its reported protein stability index: DLKSKGLIPADATFAGH [FAS1]
Outgoing: 3.04

Incoming: Determine its reported protein stability index: KFPETSYPILNESSTFL [SIN4]
Outgoing: 2.47

Incoming: Determine its reported protein stability index: RQDGSYTYHSTNKDNKA [ARP9]
Outgoing: 2.67

Incoming: Determine its reported protein stability index: AFVKDMQVYLVPIERVA [RPC37]
Outgoing: 1.18

Incoming: Determine its reported protein stability index: PTPVVTISEKEQDILDL [SSN2]
Outgoing: 2.76
